# EXPERIMENTAL_TARGET: Rap guanine nucleotide exchange factor 4 (Homo sapiens)
# ASSAY_OVERVIEW: qHTS for Agonist of cAMP-regulated guanine nucleotide exchange factor 4 (EPAC2): primary screen; also: nearly all actives have a fitted effect of over 50% in size
# CONDITION_PARAMETERS: biochemical qHTS; EPAC2 activation; series mostly up to 154 µM
About 290 (0.081%) of roughly 360,000 compounds were called active. Calls follow the shape of the dose curve; as a rule, active = well fitted activation curve with a large enough effect; inconclusive = small, poorly fitted or top-dose-only effect; inactive = no such curve, though single readings can be large or run the other way. This is one part of a sample in which actives are shown more often than they occur.
Outcome (select one): 1 = active, 0 = inactive

Recorded results for 8 molecules are shown here.
[
  {
    "MOLECULE": "O=C(NCCCN1CCCCC1)C1CCCN(c2ncnc3c2nc2n3CCCCC2)C1 (stereo unspecified)",
    "EXPERIMENTAL_TARGET": "Rap guanine nucleotide exchange factor 4 (Homo sapiens)",
    "CLASS_ASSIGNMENT": 0
  },
  {
    "MOLECULE": "CCOc1cccc(C(=O)Nc2cnn(Cc3ccccc3)c2)c1",
    "EXPERIMENTAL_TARGET": "Rap guanine nucleotide exchange factor 4 (Homo sapiens)",
    "CLASS_ASSIGNMENT": 0
  },
  {
    "MOLECULE": "CCN(C(=O)C1CCCN(c2nc(-c3ccc(OC)cc3)no2)C1)c1ccc(OC)cc1 (stereo unspecified)",
    "EXPERIMENTAL_TARGET": "Rap guanine nucleotide exchange factor 4 (Homo sapiens)",
    "CLASS_ASSIGNMENT": 0
  },
  {
    "MOLECULE": "Cc1ccc(CNC(=O)c2cccc3c2C(=O)c2ccc(N4CCC(C)CC4)cc2S3(=O)=O)cc1",
    "EXPERIMENTAL_TARGET": "Rap guanine nucleotide exchange factor 4 (Homo sapiens)",
    "CLASS_ASSIGNMENT": 1
  },
  {
    "MOLECULE": "COc1ccc(CNC(=O)c2ccc(-c3cccnc3)c3ccoc23)cc1OC",
    "EXPERIMENTAL_TARGET": "Rap guanine nucleotide exchange factor 4 (Homo sapiens)",
    "CLASS_ASSIGNMENT": 0
  },
  {
    "MOLECULE": "Cc1sc2ncn(CC(=O)NCCN(C)C)c(=O)c2c1S(=O)(=O)N1CCC(C)CC1",
    "EXPERIMENTAL_TARGET": "Rap guanine nucleotide exchange factor 4 (Homo sapiens)",
    "CLASS_ASSIGNMENT": 0
  },
  {
    "MOLECULE": "COc1ccc(S(=O)(=O)N2CCCC(C(=O)Nc3ccc(NC(=O)c4ccccn4)cc3)C2)cc1 (stereo unspecified)",
    "EXPERIMENTAL_TARGET": "Rap guanine nucleotide exchange factor 4 (Homo sapiens)",
    "CLASS_ASSIGNMENT": 0
  },
  {
    "MOLECULE": "Cc1ccc(CNC(=O)c2ccc3c(c2)S(=O)(=O)c2ccccc2C3=O)cc1",
    "EXPERIMENTAL_TARGET": "Rap guanine nucleotide exchange factor 4 (Homo sapiens)",
    "CLASS_ASSIGNMENT": 0
  }
]

Prompt: Entry O=[N+]([O-])c1ccc(CN2CC(N3CCC(c4ccccc4)CC3)CS2(=O)=O)cc1 (stereo unspecified) : call = ?
Response: 0

Prompt: And then CSc1nnnn1-c1c(C)cc(C)cc1C , what is it?
Response: 0

Prompt: Input COc1cccc(NC(=O)CSc2nnc(Cc3ccc(OC)c(OC)c3)o2)c1
Response: 0

Prompt: How about CCN(CC)C(=O)CSC(Nc1cccc(F)c1)=C(C#N)C#N ?
Response: 0

Prompt: What about this molecule? Cc1cc(C)c2oc(C(=O)Nc3ccc(S(=O)(=O)Nc4nccc(C)n4)cc3)cc(=O)c2c1
Response: 0

Prompt: Check CC(C)(C)[C@H]1C=C(C(=O)NCc2ccccc2)O[C@@H](OCc2ccc(CO)cc2)C1 too.
Response: 0

Prompt: And CCCNC(=S)NC1CC2CCCC(C1)N2CC(C)C (stereo unspecified) ?
Response: 0

Prompt: Next: Cn1ncc(N2CCN(S(=O)(=O)c3ccc(Br)cc3)CC2)c(Cl)c1=O
Response: 0

Prompt: And CCN(CC)c1ncnc2c1ncn2[C@H]1CN(Cc2cccs2)C[C@@H](CO)O1 ?
Response: 0

Prompt: Cc1occc1-c1nnc(SCC(=O)NC2(C#N)CCCC2)n1C , same question.
Response: 0

Prompt: Another molecule to check: O=C(CNC(=O)c1ccccc1F)OCC(=O)c1c[nH]c2ccccc12
Response: 0

Prompt: What do we get for COc1ccc(-c2[nH][nH]c(=O)c2NC(=O)c2ccc([N+](=O)[O-])cc2)cc1 ?
Response: 0

Prompt: And then Cc1ccc(SCC(=O)c2cc(C)c(OC(=S)N(C)C)c(C)c2)cc1 , what is it?
Response: 0
